Test system: Aβ42 secretion
Assay: Aβ42 secretion by H4 cells expressing APP695, sandwich ELISA
Assay type: cell-based, human
Conditions: test compound 100 μM vs DMSO control, medium collected at 24 or 48 hours, several numbers = independent sets of assays
Description: The present invention provides compositions and methods for lowering Aβ42 levels. […] The amyloid peptide standard is reconstituted and frozen samples are thawed. […] 100 μL per well of peptide standards, controls, and dilutions of samples to be analyzed is added. […] 100 μL of stabilized chromogen is added to each well and the liquid in the wells begins to turn blue. […] The plate is read within 2 hours of adding the stop solution. […]
# if measured % Inhibition of Aβ42 Secretion @ 100 μM < 90%: TRUE  # else: FALSE

Here's what some known entries look like.
>  <compound>
CC(C)(C)Cc1c(-c2ccccc2)cc(-c2ccccc2)n1-c1cccc(C(=O)O)c1 [Compound 36]

>  <system.under.test>
Aβ42 secretion

>  <discrete.label>
FALSE

$$$$
>  <compound>
Cc1c(-c2ccccc2)cc(-c2ccc(Cl)c(Cl)c2)n1-c1ccc(CCCC(=O)O)cc1 [Compound 19]

>  <system.under.test>
Aβ42 secretion

>  <discrete.label>
FALSE

$$$$
>  <compound>
Cc1c(-c2ccccc2)cc(-c2ccc(C(F)(F)F)cc2)n1-c1ccc(CCCC(=O)O)cc1 [Compound 16]

>  <system.under.test>
Aβ42 secretion

>  <discrete.label>
FALSE

$$$$

Problem: Below 90% on % Inhibition of Aβ42 Secretion @ 100 μM? Entry Cc1c(-c2cccc(C(F)(F)F)c2)cc(-c2ccccc2)n1-c1cccc(C(=O)O)c1 [Compound 8]
Result: TRUE

Problem: A record lists O=C(O)CCCc1ccc(-n2c(-c3ccccc3)cc(-c3ccccc3)c2C2CC2)cc1 [Compound 35] . Is its % Inhibition of Aβ42 Secretion @ 100 μM below 90%?
Result: FALSE

* * *

System: Aβ40 secretion
Assay: Aβ40 secretion by H4 cells expressing APP695, sandwich ELISA
Type: cell-based, human
Conditions: Homo sapiens, about 1 μM to about 100 μM, medium collected at 24 or 48 hours, several numbers = independent sets of assays
reported.endpoint: IC50 (µM)
Only the number, expressed in µM, is required.

Observe how each entry below is paired with its result.
>  <compound>
CC(C)(C)Cc1c(-c2ccccc2)cc(-c2ccccc2)n1-c1cccc(C(=O)O)c1 [Compound 36]

>  <IC50 / µM>
29

$$$$
>  <compound>
CC(C)(C)Cc1c(-c2ccccc2)cc(-c2ccccc2)n1-c1cccc(CCC(=O)O)c1 [Compound 37]

>  <IC50 / µM>
30

$$$$
>  <compound>
O=C(O)CCCc1ccc(-n2c(-c3ccccc3)cc(-c3ccccc3)c2C2CC2)cc1 [Compound 35]

>  <IC50 / µM>
79

$$$$
>  <compound>
Cc1c(-c2ccccc2)cc(-c2ccccc2)n1-c1cccc(OCC(=O)O)c1 [Compound 26]

>  <IC50 / µM>
42

$$$$
>  <compound>
Cc1c(-c2ccccc2)cc(-c2ccccc2)n1-c1ccc(Cl)c(C(=O)O)c1 [Compound 3]

>  <IC50 / µM>
98

$$$$
>  <compound>
CC(C)c1c(-c2ccccc2)cc(-c2ccccc2)n1-c1cccc(C(=O)O)c1 [Compound 30]

>  <IC50 / µM>
22

$$$$
>  <compound>
CCOC(=O)c1cc(CCc2ccccc2)n(-c2ccc(CCCC(=O)O)cc2)c1-c1ccccc1 [Compound 22]

>  <IC50 / µM>
40

$$$$

Attention now shifts to the item below.
Param item: O=C(O)CCCc1ccc(-n2c(-c3ccccc3)cc(-c3ccccc3)c2C2CCCCC2)cc1 [Compound 29] ; param system: Aβ40 secretion; output IC50: 33
